# credit: paper PMC9352680

# target system: T1, PUF4 RNA-binding domain (Saccharomyces cerevisiae, UniProt P25339 537-888)
# T1 sequence: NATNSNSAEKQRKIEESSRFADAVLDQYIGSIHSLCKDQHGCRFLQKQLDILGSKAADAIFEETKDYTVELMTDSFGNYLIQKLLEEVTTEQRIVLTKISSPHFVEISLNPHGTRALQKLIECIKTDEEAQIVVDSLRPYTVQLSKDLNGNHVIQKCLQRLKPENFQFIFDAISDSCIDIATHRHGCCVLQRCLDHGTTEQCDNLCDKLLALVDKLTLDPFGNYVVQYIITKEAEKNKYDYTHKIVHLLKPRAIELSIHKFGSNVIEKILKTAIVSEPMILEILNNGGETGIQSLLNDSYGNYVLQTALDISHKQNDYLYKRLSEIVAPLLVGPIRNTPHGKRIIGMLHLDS
# assay overview: Mg; RNA-MaP; 20 mM Na-HEPES pH 7.4, 30 mM KOAc, 0.75 mM MgCl2, 0.1% Tween-20, 5% glycerol, 0.1 mg/mL BSA, 2 mM DTT; 25 C; 0.0125-409.6 nM protein
# settings: tags: N-His6-TEV cleaved; C-SNAP kept, Cy3B-labelled; label: tethered on chip by stalled RNA polymerase
pKd: −log10 of the molar value.
property: pKd

binder	property	measured value
UCUCUUUGUAUAUUUUCCAUCUCUU (ssRNA) [Ie_S1_P4E.1_K4.1_C4.1_H4.1_A4.1_F4.1_[+8TTCC]_T4.1]	pKd	8.24
UCUCUUUGUAUCAUCAUCUCUU (ssRNA) [Ib_S1_P5E.1_K5.1_C5.1_H5.1_A5.1_[T6C]_F5.1_[T9C]_T5.1]	pKd	7.81
UCUCUUUGUGUUAUUGUCUCUU (ssRNA) [Ib_S1_P5E.1_K5.1_C5.1_H5.1_[A4G]_A5.1_F5.1_[A10G]_T5.1]	pKd	6.42
UCUCUUGGUAUGUAUCUCUU (ssRNA) [Ib_S1_P3E.1_K3.1_C3.1_H3.1_[T1G]_A3.1_[A6G]_F3.1_T3.1]	pKd	6.14
UCUCUUUGUCUUGUUAUCUCUU (ssRNA) [Ib_S1_P5E.1_K5.1_C5.1_H5.1_[A4C]_A5.1_[A7G]_F5.1_T5.1]	pKd	6.32
UCUCUUAUUGUAUUAUUAUGUCUCUU (ssRNA) [Id_ii_S1_P5E.2_K5.1_C5.2_[C-2A]_H5.1_A5.1_F5.1_T5.2_[A12G]]	pKd	8.00
Ib_S4_P3E.1_K3.1_C3.1_H3.1_[G2A]_A3.1_[T5C]_F3.1_T3.1 (ssRNA) RNA: UUUGACAACUGAUCGUUCUUUCUUAUACAUAUUCUUUCUCGAUCAGUUGUCUUU	pKd	6.42
Id_ii_S2_P3E.4_K3.3_C3.2_[C-2G]_H3.3_A3.1_F3.1_T3.2_[T9A]_[A10T] (ssRNA) RNA: UUUGAUUAAUAUGAUAUCGUUCUUUCUGUACACUAUAAUUUCUUUCUCGAUAUCAUAUUAAUCUUU	pKd	9.32
Ic_S2_P4E.1_K4.1_C4.1_H4.1_A4.1_[T5C]_[A6T]_[T7G]_F4.1_[T8C]_[A9T]_T4.1 (ssRNA) RNA: UUUGAUUAAUAUGAUAUCGUUCUUUCUUGUACUGCUUUCUUUCUCGAUAUCAUAUUAAUCUUU	pKd	6.80
UCUCUUUCCUGUAUAUUAUCUCUU (ssRNA) [Ie_S1_P4E.1_K4.1_C4.1_H4.1_[+1CCT]_A4.1_F4.1_T4.1]	pKd	9.23
ACAAACCUUAUAUAUAUGACAAAC (ssRNA) [Id_ii_S3_P3E.3_K3.2_C3.2_H3.2_A3.1_F3.1_T3.2_[A10G]]	pKd	6.20
UCUCUUUGUAUCAUAAUCUCUU (ssRNA) [Ib_S1_P5E.1_K5.1_C5.1_H5.1_A5.1_[T6C]_F5.1_[T9A]_T5.1]	pKd	8.62
Ib_S2_P4E.1_K4.1_C4.1_H4.1_[T1C]_[A4G]_A4.1_F4.1_T4.1 (ssRNA) RNA: UUUGAUUAAUAUGAUAUCGUUCUUUCUCGUGUAUUAUUCUUUCUCGAUAUCAUAUUAAUCUUU	pKd	8.14
